Cited source: patent US20120316071A1

Exercise: for every item that follows, state its recorded ELISA (Avgerage signal-noise).
- Experimental system: T1, Recombinant Human DLL4 (delta-like protein 4) (human, UniProt Q9NR61 27-524)
- T1 construct: Bought recombinant human DLL4 (R&D Systems Cat#1506-D4/CF), coated on the plate; also called rHuman DLL4; Delta-like 4
- Assay remarks: ELISA, DLL4 coated plate, Fab in solution; average signal minus noise
Give the figure only, with no unit attached.

Q: Requested field: ELISA (Avgerage signal-noise). Item: Fab VH1-46_IGHD6-6*01_IGHJ1*01 S102A/S103P/S104F/H111F (H:APFF) & L6_IGKJ1*01 S28N/S30D/S31H A55R (Fab, V domains shown, Fab made in E. coli: heavy chain from Plasmid A (CH1, His6 and Flag tags), kappa light chain from Plasmid C (kappa CL); also called H:APFF & L:NDH A55R) VH: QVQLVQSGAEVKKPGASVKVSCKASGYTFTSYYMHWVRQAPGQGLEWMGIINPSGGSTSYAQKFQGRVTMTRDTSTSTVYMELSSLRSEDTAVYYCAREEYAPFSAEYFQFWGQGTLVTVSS VL: EIVLTQSPATLSLSPGERATLSCRASQNVDHYLAWYQQKPGQAPRLLIYDASNRRTGIPARFSGSGSGTDFTLTISSLEPEDFAVYYCQQRSNWPPWTFGQGTKVEIKR
Ans: 0.106

Q: Requested field: ELISA (Avgerage signal-noise). Item: Fab VH1-46_IGHD6-6*01_IGHJ1*01 S102A/S103P/S104F/H111F (H:APFF) & L6_IGKJ1*01 S28N/S30D/S31H A55C (Fab, V domains shown, Fab made in E. coli: heavy chain from Plasmid A (CH1, His6 and Flag tags), kappa light chain from Plasmid C (kappa CL); also called H:APFF & L:NDH A55C) VH: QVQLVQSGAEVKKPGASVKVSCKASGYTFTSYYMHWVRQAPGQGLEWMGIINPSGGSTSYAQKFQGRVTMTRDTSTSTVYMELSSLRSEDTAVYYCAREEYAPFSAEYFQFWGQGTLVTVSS VL: EIVLTQSPATLSLSPGERATLSCRASQNVDHYLAWYQQKPGQAPRLLIYDASNRCTGIPARFSGSGSGTDFTLTISSLEPEDFAVYYCQQRSNWPPWTFGQGTKVEIKR
Ans: 0.146

Q: Requested field: ELISA (Avgerage signal-noise). Item: Fab VH1-46_IGHD6-6*01_IGHJ1*01 S102A/S103P/S104F/H111F (H:APFF) & L6_IGKJ1*01 S28N/S30D/S31H N53A (Fab, V domains shown, Fab made in E. coli: heavy chain from Plasmid A (CH1, His6 and Flag tags), kappa light chain from Plasmid C (kappa CL); also called H:APFF & L:NDH N53A) VH: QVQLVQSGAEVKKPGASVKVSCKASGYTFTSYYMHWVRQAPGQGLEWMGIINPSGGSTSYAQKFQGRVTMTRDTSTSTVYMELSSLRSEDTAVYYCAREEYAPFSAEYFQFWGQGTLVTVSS VL: EIVLTQSPATLSLSPGERATLSCRASQNVDHYLAWYQQKPGQAPRLLIYDASARATGIPARFSGSGSGTDFTLTISSLEPEDFAVYYCQQRSNWPPWTFGQGTKVEIKR
Ans: 0.151

Q: Requested field: ELISA (Avgerage signal-noise). Item: Fab VH1-46_IGHD6-6*01_IGHJ1*01 S102A/S103P/S104F/H111F (H:APFF) & L6_IGKJ1*01 S28N/S30D/S31H (L:NDH) (Fab, V domains shown, Parent template of this NNK series; Fab made in E. coli: heavy chain from Plasmid A (CH1, His6 and Flag tags), kappa light chain from Plasmid C (kappa CL); also called H:APFF & L:NDH) VH: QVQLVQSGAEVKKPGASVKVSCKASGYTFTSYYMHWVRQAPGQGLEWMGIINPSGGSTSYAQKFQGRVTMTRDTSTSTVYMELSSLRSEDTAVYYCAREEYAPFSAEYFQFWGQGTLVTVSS VL: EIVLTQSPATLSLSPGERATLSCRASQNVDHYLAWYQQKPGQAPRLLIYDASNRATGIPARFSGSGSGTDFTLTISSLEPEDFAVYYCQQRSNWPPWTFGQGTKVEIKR
Ans: 0.214

Q: Requested field: ELISA (Avgerage signal-noise). Item: Fab VH1-46_IGHD6-6*01_IGHJ1*01 S102A/S103P/S104F/H111F (H:APFF) & L6_IGKJ1*01 S28N/S30D/S31H N53P (Fab, V domains shown, Fab made in E. coli: heavy chain from Plasmid A (CH1, His6 and Flag tags), kappa light chain from Plasmid C (kappa CL); also called H:APFF & L:NDH N53P) VH: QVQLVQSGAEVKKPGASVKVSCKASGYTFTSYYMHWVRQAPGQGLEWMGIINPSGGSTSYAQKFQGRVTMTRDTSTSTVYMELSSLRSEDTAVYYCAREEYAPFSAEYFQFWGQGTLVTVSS VL: EIVLTQSPATLSLSPGERATLSCRASQNVDHYLAWYQQKPGQAPRLLIYDASPRATGIPARFSGSGSGTDFTLTISSLEPEDFAVYYCQQRSNWPPWTFGQGTKVEIKR
Ans: 0.12

Q: Requested field: ELISA (Avgerage signal-noise). Item: Fab VH1-46_IGHD6-6*01_IGHJ1*01 S102A/S103P/S104F/H111F (H:APFF) & L6_IGKJ1*01 S28N/S30D/S31H A55S (Fab, V domains shown, Fab made in E. coli: heavy chain from Plasmid A (CH1, His6 and Flag tags), kappa light chain from Plasmid C (kappa CL); also called H:APFF & L:NDH A55S) VH: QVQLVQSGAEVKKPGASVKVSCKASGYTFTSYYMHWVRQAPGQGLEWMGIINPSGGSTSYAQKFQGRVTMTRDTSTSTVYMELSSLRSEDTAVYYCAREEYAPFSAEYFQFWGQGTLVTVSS VL: EIVLTQSPATLSLSPGERATLSCRASQNVDHYLAWYQQKPGQAPRLLIYDASNRSTGIPARFSGSGSGTDFTLTISSLEPEDFAVYYCQQRSNWPPWTFGQGTKVEIKR
Ans: 0.383
